Sourced from PubChem BioAssay (NCI)

- System: MCF7 breast
- procedure-text: NCI tumour cell line growth inhibition, 48 h; in the data active = GI50 below about 0.43 µM; inactive = the rest
Use one of these outcomes when replying: active, inactive

[[record]]
compound = "CCCCCCNC(=O)c1cc(NCc2cc(O)ccc2O)ccc1O"
assigned_category = "inactive"


Query: recorded result category for COc1ccc(C(C)=O)cc1N1C(=O)C2C(C1=O)C1(c3ccccc3)C(=O)C2(c2ccccc2)C(c2ccc(C)cc2)=C1c1ccc(C)cc1 (configuration not stated) in this test inactive

---

- Test system: LXFL 529 NSCLC
- procedure-text: NCI tumour cell line growth inhibition, 48 h
outcome-measure: TGI

[[record]]
compound = "CCOC(=O)C1(C#N)C(c2ccccc2)CC(O)(c2ccc(OC)cc2)C(C(=O)c2ccc(OC)cc2)C1c1ccccc1 (centres undefined)"
outcome_measure = "TGI"
experimental_result = "> 100 µM"


Batch request: TGI per item, same order as input.
1. Cn1c2c(c3ccccc31)C1CCCCCCC1C1C(=O)OC(=O)C21 (centres undefined)
2. [N-]=[N+]=NC12CC3C4CC5CC3C(C1)C(C5)C4C2
3. Cc1cc(CC(O)c2ccc(Cl)c(Cl)c2)nc(=O)[nH]1 (centres undefined)

1. > 100 µM
2. > 100 µM
3. 59.2 µM

---

- Tested on: HCC-2998 colon
- procedure-text: NCI tumour cell line growth inhibition, 48 h
outcome-measure: TGI (µM)
Answers are plain numbers, in µM.

Examples with answers:
[[record]]
compound = "COc1cc(/C=C2\\C[C@H]3[C@@H]4CCc5cc(O)ccc5[C@H]4CC[C@]3(C)C2=O)cc(OC)c1OC"
outcome_measure = "TGI"
experimental_result = 35.9

[[record]]
compound = "C=CCCCCC/C=C\\[C@H](O)C#CC#C/C=C/CO"
outcome_measure = "TGI"
experimental_result = 25.1

[[record]]
compound = "C=C1CC[C@@H]2[C@](C)(COC(C)=O)[C@H](OC(C)=O)CC[C@@]2(C)[C@@H]1CC(Sc1ccccc1)C1=CCOC1=O (some centres not stated)"
outcome_measure = "TGI"
experimental_result = 4.07

[[record]]
compound = "CC(C)=CCNc1ncnc2c1ncn2C1OC(CO)C(O)C1O (configuration not stated)"
outcome_measure = "TGI"
experimental_result = 94.3

[[record]]
compound = "CC(C)CCN1c2nc(Nc3cc(F)c(O)c(F)c3)ncc2N(C)C(=O)C1C (configuration not stated)"
outcome_measure = "TGI"
experimental_result = 17.1


What TGI appears in the records for this compound with HCC-2998 colon? CC1=CC(C)C/C=C/C2C3OC3(C)C(C)C3C(Cc4c[nH]c5ccccc45)NC(=O)C23C(=O)C=CC(=O)C1O (configuration not stated) 21.7

---

- Tested on: MCF7 breast
- procedure-text: NCI tumour cell line growth inhibition, 48 h
outcome-measure: TGI

Examples with answers:
[[record]]
compound = "C=C(CNCc1ccccc1)c1ccc(C(=O)Nc2ccccc2N)cc1"
outcome_measure = "TGI"
experimental_result = "> 100 µM"

[[record]]
compound = "O=c1c2sc(=S)n(-c3ccc(F)cc3)c2ncn1Cc1ccc(F)cc1F"
outcome_measure = "TGI"
experimental_result = "> 100 µM"

[[record]]
compound = "CN(CC(=O)O)c1ncc2c(n1)-c1ccccc1SC2"
outcome_measure = "TGI"
experimental_result = "> 100 µM"

[[record]]
compound = "CN(C)CCCNC(=O)c1cc2[nH]c3c(cnc4ccc([N+](=O)[O-])cc43)c(=O)c2n1C"
outcome_measure = "TGI"
experimental_result = "28.9 µM"

[[record]]
compound = "O=C(C=P(c1ccccc1)(c1ccccc1)c1ccccc1)c1ccc(-c2cccc([N+](=O)[O-])c2)s1"
outcome_measure = "TGI"
experimental_result = "> 100 µM"


Batch request: TGI per item, same order as input.
1. CC(CCC=O)CCOCc1ccccc1 (stereo not given)
2. CCOC(=O)c1c(-c2ccc(OC)cc2)c(C#N)c(=S)n(C2OC(COC(C)=O)C(OC(C)=O)C(OC(C)=O)C2OC(C)=O)c1-c1ccccc1 (stereo not given)
3. CC(C)(Cl)C(Br)CCC(C)(Cl)C(Br)CBr (stereo not given)
4. NC(=Nc1c([N+](=O)[O-])cnc2ccccc12)N1CCOCC1
5. COC(=O)CC(C#N)(OP1(=O)OC(c2ccccc2)C(C)N1C)c1ccccc1 (stereo not given)

22.7 µM
> 100 µM
41.7 µM
> 100 µM
> 100 µM
